# assayed target: T1, human plexin A1 protein sema domain (from glutamic acid at position 28 to serine at position 514) tagged at … (human, UniProt Q9UIW2 28-514)
# T1 construct: also called human plexin A1 sema domain
# T1 sequence: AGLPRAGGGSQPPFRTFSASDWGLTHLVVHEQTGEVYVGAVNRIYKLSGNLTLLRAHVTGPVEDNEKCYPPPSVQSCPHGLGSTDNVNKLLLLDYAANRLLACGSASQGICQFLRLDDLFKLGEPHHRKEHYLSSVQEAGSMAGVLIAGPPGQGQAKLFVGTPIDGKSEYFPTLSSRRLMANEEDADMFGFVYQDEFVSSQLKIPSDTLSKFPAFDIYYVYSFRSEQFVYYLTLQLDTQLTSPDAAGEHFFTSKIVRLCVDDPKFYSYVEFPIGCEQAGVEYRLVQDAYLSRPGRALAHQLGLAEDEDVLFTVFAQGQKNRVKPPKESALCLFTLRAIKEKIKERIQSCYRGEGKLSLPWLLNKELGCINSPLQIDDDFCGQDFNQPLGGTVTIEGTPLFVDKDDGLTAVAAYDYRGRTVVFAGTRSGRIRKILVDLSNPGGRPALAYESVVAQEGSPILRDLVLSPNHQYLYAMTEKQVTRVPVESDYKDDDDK
# test description: SPR, Biacore T200; antibody held by Protein A/G on CM4 chip, sema domain as analyte
pKd: −log10 of the molar value.
// reported pKd for each item listed
attribute measured: pKd

binder	obs value
hPANLB2-3_359 (antibody, human IgG1, lambda, V domains shown, Parent anti-plexin A1 antibody, IgG) VH: QVQLVQSGAEVKKPGASVKVSCKASGYTFTSYYMHWVRQAPGQGLEWMGIINPSGGSTSYAQKFQGRVTMTRDTSTSTVYMELSSLRSEDTAVYYCARAPGHYYYGMDVWGQGTTVTVSS VL: SYELTQPPSVSVSPGQTASITCSGDKVGEKYASWYQQRPGQSPVLVIYQDTKRPSGIPERFSGSNSGNTATLTISGTQAIDDADYYCQAWDNSAYVIFGGGTKLTVLG	7.87
hPANLB2-3_264 (antibody, human IgG1, lambda, V domains shown, Parent anti-plexin A1 antibody, IgG) VH: QVQLQQSGPGLVKPSQTLSLTCAISGDSVSSNSAAWNWIRQSPSRGLEWLGRTYYRSKWYNDYAVSVKSRITINPDTSKNQFSLQLNSVTPEDTAVYYCARDRGYSYGFDYWGQGTLVTVSS VL: SYLLTQPPSVSVSPGQTASITCSGDKLGQKFVSWYQQRPGQSPVLVIYQDTKRPSGIPERFSGSNSGNTATLTISGTQAMDEADYYCQAWDSSTAGVFGGGTNLTVLG	6.76
PLR3H264#022 (antibody, human IgG1, lambda, V domains shown, IgG from the 264H-NL library) VH: QVQLQQSGPGLVKPSQTLSLTCAISGDSVSSNSAAWNWIRQSPSRGLEWLGRTYYRSKWYNDYAVSVKSRITINPDTSKNQFSLQLNSVTPEDTAVYYCARDRGYSYGFDYWGQGTLVTVSS VL: SYVLTQPRSVSVSPGQTTRITCSGQNLGEKYISWYRQKPGQSPEVLIYEDKRRPSGIPERISGANSGGTATLTISGTQAMDEADYFCQAWVSSTEGVFGGGTRLTVLR	7.24
